TARGET OR SYSTEM: 5-lipoxygenase (Cavia porcellus, UniProt A0A286X958)
Construct: A-23187-stimulated guinea pig polymorphonuclear leukocytes; endogenous in cells; host or cells: guinea pig polymorphonuclear leukocytes
Sequence (A0A286X958 1-674): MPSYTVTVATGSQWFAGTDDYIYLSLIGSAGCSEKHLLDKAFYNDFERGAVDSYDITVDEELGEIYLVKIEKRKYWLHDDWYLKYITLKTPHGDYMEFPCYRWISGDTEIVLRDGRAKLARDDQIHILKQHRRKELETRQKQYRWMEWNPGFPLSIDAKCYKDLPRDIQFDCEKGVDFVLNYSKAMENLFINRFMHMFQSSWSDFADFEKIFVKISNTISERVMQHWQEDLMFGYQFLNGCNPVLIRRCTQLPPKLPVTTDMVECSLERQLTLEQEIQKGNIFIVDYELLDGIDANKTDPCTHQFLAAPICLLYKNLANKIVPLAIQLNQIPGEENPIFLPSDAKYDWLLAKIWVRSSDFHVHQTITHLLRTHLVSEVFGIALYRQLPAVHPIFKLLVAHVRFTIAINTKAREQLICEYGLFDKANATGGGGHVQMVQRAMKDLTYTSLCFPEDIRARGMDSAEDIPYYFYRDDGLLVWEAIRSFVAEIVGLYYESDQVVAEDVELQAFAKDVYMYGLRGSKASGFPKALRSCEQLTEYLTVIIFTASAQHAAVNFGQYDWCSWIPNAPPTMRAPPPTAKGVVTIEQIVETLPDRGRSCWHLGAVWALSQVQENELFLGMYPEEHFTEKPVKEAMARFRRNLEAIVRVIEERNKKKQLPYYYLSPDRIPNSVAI
METHOD DESCRIPTION: Inhibition of the synthesis of 5-HETE and LTB4 in A-23187-stimulated guinea pig polymorphonuclear leukocytes
Type: cell-based
CONDITION DESCRIPTION: in vitro, read-out: IC50 for LTB4 formation
pIC50: −log10 of the molar value.
READOUT LABEL: pIC50

INSERT INTO assay_data (input_smiles, result) VALUES
  ('CC(=O)Oc1cc(N(C)C2CCCCC2)c2ccccc2c1OC(C)=O', '~6.00');

* * *

TARGET OR SYSTEM: 5-lipoxygenase (Cavia porcellus, UniProt A0A286X958)
Construct: A-23187-stimulated guinea pig polymorphonuclear leukocytes; endogenous in cells; host or cells: guinea pig polymorphonuclear leukocytes
METHOD DESCRIPTION: Inhibition of the synthesis of 5-HETE and LTB4 in A-23187-stimulated guinea pig polymorphonuclear leukocytes
Type: cell-based
CONDITION DESCRIPTION: in vitro, read-out: IC50 for inhibition of the formation of LTB4
pIC50: −log10 of the molar value.
READOUT LABEL: pIC50

INSERT INTO measurements (input_smiles, result) VALUES
  ('CN(C1=CC(=O)C(=O)c2ccccc21)C1CCCCC1', '~6.30');
